Test system: HCT116 WT cells
Experiment: HCT116 proliferation assay, WT cells (CellTiter-Glo, 6 days)
Type: cell-based
Conditions: Homo sapiens, HCT-116, 144 h, read-out: Prolif_HCT116-WT IC50
observable: log10(IC50) (log10 of the value in nM)
Answers are given as log10 of IC50 in nM.

Some solved cases for reference:
{"compound": "Cc1cc2cc(C(=O)N(Cc3ccc(C#N)cn3)[C@@H](c3ncccn3)C3CC3)ccc2nc1N [Example 423]", "log10(IC50)": 3.26}
{"compound": "Cc1cc2cc(C(=O)N(Cc3ccc(C#N)cn3)C3CCCC3C#N)c(F)cc2nc1N (centres unmarked) [Example 703]", "log10(IC50)": 3.36}
{"compound": "Cc1cc2cc(C(=O)N(Cc3ccc(C#N)nc3C)[C@H](C)c3ncccn3)ccc2nc1N (single isomer, unassigned) [Example 820]", "log10(IC50)": 3.55}
{"compound": "Cc1cc2cc(C(=O)N(Cc3cc4ccccc4cn3)C(C)c3ncccn3)ccc2nc1N (centres unmarked) [Example 792]", "log10(IC50)": 3.58}
{"compound": "C[C@H](c1ncccn1)N(Cc1ccc(C2CC2)nn1)C(=O)c1ccc2nc(N)c(Br)cc2c1 [Example 762]", "log10(IC50)": 3.94}
{"compound": "N#Cc1ccc(CN(C(=O)c2cnc3nc(N)c(Br)cc3c2)[C@@H](c2ncccn2)C2CC2)nc1 [Example 425]", "log10(IC50)": 3.34}

Consider the compound Cc1cc2cc(C(=O)N(Cc3ccc(Br)nn3)[C@H](C)c3ncccn3)c(F)cc2nc1N [Example 349] and give its measured log10(IC50). 2.93

Consider the compound Cc1cc2cc(C(=O)N(Cc3ccc(C(F)(F)F)cn3)[C@@H]3CCOc4ncccc43)ccc2nc1N (single isomer, unassigned) [Example 459] and give its measured log10(IC50). 3.37

Consider the compound CC[C@H](c1ncccn1)N(Cc1ccc(C(F)(F)F)cn1)C(=O)c1cnc2nc(N)c(I)cc2c1 (single isomer, unassigned) [Example 788] and give its measured log10(IC50). 3.20

Consider the compound Cc1cc2cc(C(=O)N(Cc3ccc(N4CC(F)(F)C4)cn3)[C@H](C)c3ncccn3)ccc2nc1N [Example 359] and give its measured log10(IC50). 3.68

====

Test system: HCT116 MTAP null cells
Experiment: HCT116 proliferation assay, MTAP null cells (CellTiter-Glo, 6 days)
Format: cell-based
Conditions: HCT116-MTAP null, 144 h, read-out: Protif_ HCT116-MTAP null IC50
Reported pIC50 values for a set of compounds
Please note pIC50 is a logarithmic value: minus log10 of concentration in mol/L. Answer with that number alone.

{"compound": "CC[C@H](c1ncccn1)N(Cc1ccc(C#N)cn1)C(=O)c1ccc2nc(N)c(C)cc2c1 (single isomer, unassigned)", "assay-target": "HCT116 MTAP null cells", "pIC50": 6.71}
{"compound": "Cc1cc2cc(C(=O)N(Cc3ccc(N4CCC(C(N)=O)CC4)cc3)CC(C)C3CC3)ccc2nc1N (centres unmarked)", "assay-target": "HCT116 MTAP null cells", "pIC50": 6.69}
{"compound": "Cc1cc2cc(C(=O)N(Cc3ccc(Cl)cn3)Cc3ncccn3)ccc2nc1N", "assay-target": "HCT116 MTAP null cells", "pIC50": 6.30}
{"compound": "Cc1cc2cc(C(=O)N(Cc3ccc(C(F)(F)F)cn3)[C@@H]3CCCc4nccnc43)ccc2nc1N (single isomer, unassigned)", "assay-target": "HCT116 MTAP null cells", "pIC50": 7.92}
{"compound": "Cc1cc2cc(C(=O)N(Cc3ccc(C(=O)N(C)C)cn3)[C@H](C)c3ncccc3F)ccc2nc1N", "assay-target": "HCT116 MTAP null cells", "pIC50": 6.05}

Give pIC50 (HCT116 MTAP null cells) of the following compound: Cc1cc2cc(C(=O)N(Cc3ccc(C(F)F)cn3)Cc3ncccc3F)ccc2nc1N 6.90

Give pIC50 (HCT116 MTAP null cells) of the following compound: CC(C)CN(Cc1ccc(C(F)(F)F)cn1)C(=O)c1ccc2nc(N)c(-c3ccccc3)cc2c1 6.28

Give pIC50 (HCT116 MTAP null cells) of the following compound: Cc1cc2cc(C(=O)N(Cc3ccc4[nH]c(=O)oc4c3)Cc3ccc(C(F)(F)F)cn3)ccc2nc1N 7.00

Give pIC50 (HCT116 MTAP null cells) of the following compound: C[C@H](c1ncccn1)N(Cc1ccc(C#N)cn1)C(=O)c1ccc2nc(N)c(Br)cc2c1 6.82

Give pIC50 (HCT116 MTAP null cells) of the following compound: Cc1cc2cc(C(=O)N(Cc3ccc(C4=CCOCC4)cn3)[C@H](C)c3ncccn3)ccc2nc1N 7.38

Give pIC50 (HCT116 MTAP null cells) of the following compound: Cc1cc2cc(C(=O)N(Cc3ccc(C(F)(F)F)cn3)C(C)C3CCOCC3)ccc2nc1N (centres unmarked) 6.63

Give pIC50 (HCT116 MTAP null cells) of the following compound: Cc1cc2cc(C(=O)N(Cc3ccc(C(F)(F)F)cn3)Cc3ncn(C)n3)ccc2nc1N 6.40

Give pIC50 (HCT116 MTAP null cells) of the following compound: CO[C@@H]1COCC[C@H]1N(Cc1ccc(C(F)(F)F)cn1)C(=O)c1ccc2nc(N)c(C)cc2c1 7.10

Give pIC50 (HCT116 MTAP null cells) of the following compound: C[C@H](c1ncccn1)N(Cc1ccc(Cl)cn1)C(=O)c1ccc2nc(N)c(Br)cc2c1 6.91

Give pIC50 (HCT116 MTAP null cells) of the following compound: Cc1cc2cc(C(=O)N(Cc3ccc(C(F)(F)F)cn3)C3CC(C)(C)c4ccccc43)ccc2nc1N (centres unmarked) 6.19

Give pIC50 (HCT116 MTAP null cells) of the following compound: Cc1cc2cc(C(=O)N(Cc3ccc(Br)nn3)[C@H](C)c3ncn(C)n3)ccc2nc1N (single isomer, unassigned) 7.36

Give pIC50 (HCT116 MTAP null cells) of the following compound: Cc1cc2cc(C(=O)N(Cc3ccc(C(C)(C)O)cn3)[C@H](C)c3ncccn3)ccc2nc1N 6.27

Give pIC50 (HCT116 MTAP null cells) of the following compound: Cc1cc2cc(C(=O)N(Cc3ccc(C#N)nn3)[C@H](C)c3ncccc3F)ccc2nc1N 6.58

Give pIC50 (HCT116 MTAP null cells) of the following compound: Cc1cc2cc(C(=O)N(Cc3cnc4ccccc4c3)[C@H](C)c3ncccn3)ccc2nc1N (single isomer, unassigned) 6.17

Give pIC50 (HCT116 MTAP null cells) of the following compound: Cc1cc2cc(C(=O)N(Cc3ccc(C(F)(F)F)cn3)[C@@H]3CCOc4cccnc43)ccc2nc1N (single isomer, unassigned) 7.41

====

Tested on: HCT116 WT cells
Test: HCT116 proliferation assay, WT cells (CellTiter-Glo, 6 days)
Format: cell-based
Conditions: Homo sapiens, HCT-116, 144 h, read-out: Prolif_HCT116-WT IC50
Reported log10 IC50 values for a set of compounds
Answers are given as log10 of IC50 in nM.

Some solved cases for reference:
{"compound": "Cc1cc2cc(C(=O)N(Cc3ccc(C#N)cn3)[C@H](C)c3ccccc3F)ccc2nc1N", "value": 3.02}
{"compound": "COC(=O)N1CCC(c2ccc(CN(C(=O)c3ccc4nc(N)c(C)cc4c3)[C@H](C)c3ncccn3)nc2)CC1", "value": 2.88}
{"compound": "CC(=O)c1ccc(CN(C(=O)c2ccc3nc(N)c(C)cc3c2)[C@H](C)c2ncccn2)nc1", "value": 3.61}

Consider the compound COC[C@@H](C)N(Cc1ccc(OC)nn1)C(=O)c1ccc2nc(N)c(C)cc2c1 and give its measured log10 IC50. 3.79

Consider the compound N#Cc1ccc(CN(C(=O)c2ccc3nc(N)c(Br)cc3c2)[C@@H](c2ncccn2)C2CC2)nc1 and give its measured log10 IC50. 3.63

Consider the compound Cc1cc2cc(C(=O)N(Cc3ccc(N4CCOCC4)nn3)[C@H](C)c3ncccc3F)ccc2nc1N and give its measured log10 IC50. 2.84

Consider the compound Cc1cc2cc(C(=O)N(Cc3ccc(C#N)cn3)[C@H](C)c3ncc(F)cc3F)ccc2nc1N and give its measured log10 IC50. 3.51

Consider the compound Cc1cc2cc(C(=O)N(Cc3ccc(Br)nn3)[C@@H]3CCCn4ncnc43)c(F)cc2nc1N and give its measured log10 IC50. 3.95

Consider the compound CO[C@H]1Cc2ccccc2[C@@H]1N(Cc1ccc(C(F)(F)F)cn1)C(=O)c1ccc2nc(N)c(C)cc2c1 and give its measured log10 IC50. 3.24

====

Reported pIC50 values for a set of compounds
System: HCT116 WT cells
Experiment: HCT116 proliferation assay, WT cells (CellTiter-Glo, 6 days)
Format: cell-based
Conditions: Homo sapiens, HCT-116, 144 h, read-out: Prolif_HCT116-WT IC50
Please note pIC50 is a logarithmic value: minus log10 of concentration in mol/L. Answer with that number alone.

Some solved cases for reference:
{"compound": "CC[C@H](c1ncccn1)N(Cc1ccc(C#N)cn1)C(=O)c1ccc2nc(N)c(I)cc2c1 [Example 760]", "pIC50": 5.53}
{"compound": "Cc1cc2cc(C(=O)N(Cc3ccc(OC4COC4)cn3)[C@H](C)c3ncccn3)ccc2nc1N [Example 427]", "pIC50": 5.37}
{"compound": "Cc1cc2cc(C(=O)N(Cc3ccc(Cl)cn3)[C@H](C)c3ncccn3)ccc2nc1N [Example 504]", "pIC50": 5.87}
{"compound": "CC[C@H](c1ncccn1)N(Cc1ccc(C(F)(F)F)nn1)C(=O)c1ccc2nc(N)c(C)cc2c1 (single isomer, unassigned) [Example 495]", "pIC50": 5.50}
{"compound": "Cc1cc2cc(C(=O)N(Cc3cc4c(cn3)OCCC4)C(C)c3ncccn3)ccc2nc1N (stereo not shown) [Example 741]", "pIC50": 5.08}

Next compound, please.
Give pIC50 (HCT116 WT cells) of the following compound: Cc1nc([C@@H](C)N(Cc2ccc(C(F)F)cn2)C(=O)c2ccc3nc(N)c(C)cc3c2)no1 (single isomer, unassigned) [Example 534] 5.40
